B1: TRIM29 (parent)
chain: RKCPVHGKTMELFCQTDQTCICYL

Variants of: B1
procedure-summary: protein stability index of a GFP-peptide fusion (GPS, HEK-293T) (PSI 1-6); higher = more stable;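 note: lentivirally expressed fusions sorted by FACS into six bins by GFP to DsRed ratio, PSI derived from sequencing read proportions per bin multiplied by bin number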
condition-info: c terminus: a fixed tail appended
protein stability index by entry:
assay-endpoint: protein stability index

variant_name=F13L assay_endpoint="protein stability index" observed_value=2.04
variant_name=M10K assay_endpoint="protein stability index" observed_value=2.02
variant_name=L12R assay_endpoint="protein stability index" observed_value=1.99
